Just for reference, DBAASP is where these values come from.

// values below are MIC; system is Bacillus subtilis CMCC 63501
Enter your answer as a number in µM; do not include the unit.

Below, each entry is followed by its recorded MIC result.
{"columns": ["Compound", "Measured"],
 "data": [
  ["C[C@H](NC(=O)[C@H](CCCN=C(N)N)NC(=O)[C@H](Cc1c[nH]c2ccccc12)NC(=O)[C@H](CCCN=C(N)N)NC(=O)[C@H](Cc1c[nH]c2ccccc12)NC(=O)[C@H](Cc1c[nH]c2ccccc12)NC(=O)[C@H](Cc1c[nH]c2ccccc12)NC(=O)[C@H](CCCN=C(N)N)NC(=O)[C@H](Cc1c[nH]c2ccccc12)NC(=O)[C@H](CCCN=C(N)N)NC(=O)[C@@H](N)[C@@H](C)O)C(N)=O [TRWRWWWRWRA]", 16],
  ["CC[C@H](C)[C@H](NC(=O)[C@H](CCCN=C(N)N)NC(=O)CNC(=O)[C@@H](NC(=O)[C@@H](NC(=O)[C@H](CCCN=C(N)N)NC(=O)[C@H](CCCCN)NC(=O)[C@H](Cc1ccccc1)NC(=O)[C@H](CCC(=O)O)NC(=O)[C@H](CCCCN)NC(=O)CN)[C@@H](C)CC)C(C)C)C(=O)N[C@@H](Cc1ccc(O)cc1)C(=O)N[C@@H](CCCN=C(N)N)C(=O)N[C@@H](CC(C)C)C(=O)N[C@@H](CS)C(=O)N[C@@H](CS)C(=O)N[C@@H](CCCN=C(N)N)C(N)=O [GKEFKRIVGRIYRLCCR]", 8],
  ["CC[C@H](C)[C@H](NC(=O)[C@H](Cc1c[nH]c2ccccc12)NC(=O)[C@H](CCCCN)NC(=O)[C@H](CC(C)C)NC(=O)[C@@H](NC(=O)[C@H](Cc1c[nH]c2ccccc12)NC(=O)CNC(=O)[C@@H](NC(=O)[C@H](CCCCN)NC(=O)[C@H](CCCCN)NC(=O)[C@H](CC(C)C)NC(=O)[C@@H](N)CCCN=C(N)N)[C@@H](C)CC)C(C)C)C(N)=O [RLKKIGWVLKWI]", 2]
]}

Looking up NC(=O)[C@@H]1CCCN1C(=O)[C@H](CCCN=C(N)N)NC(=O)[C@@H]1CCCN1C(=O)[C@H](CCCN=C(N)N)NC(=O)[C@H](CS)NC(=O)[C@H](Cc1ccccc1)NC(=O)[C@H](CCCN=C(N)N)NC(=O)[C@H](CCCN=C(N)N)NC(=O)[C@H](CCCN=C(N)N)NC(=O)[C@H](CS)NC(=O)[C@H](CCCN=C(N)N)NC(=O)[C@@H]1CCCN1C(=O)[C@H](CCCN=C(N)N)NC(=O)[C@@H]1CCCN1 [PRPRCRRRFCRPRP] , I see its MIC listed as 8

====

// values below are MIC; system is Salmonella enterica subsp. enterica serovar Typhimurium C77-31
Enter your answer as a number in µM; do not include the unit.

{"columns": ["Smiles string", "MIC [µM]"],
 "data": [
  ["CC[C@H](C)[C@H](N)C(=O)N[C@@H](CCCN=C(N)N)C(=O)N[C@H](C(=O)N[C@@H](CCCN=C(N)N)C(=O)N[C@@H](CS)C(=O)N[C@@H](CCCN=C(N)N)C(=O)N[C@@H](CCCN=C(N)N)C(=O)N[C@@H](CCCN=C(N)N)C(=O)N[C@@H](Cc1ccccc1)C(=O)N[C@@H](CS)C(=O)N[C@@H](CCCN=C(N)N)C(=O)N[C@H](C(=O)N[C@@H](CCCN=C(N)N)C(=O)N[C@H](C(N)=O)[C@@H](C)CC)[C@@H](C)CC)[C@@H](C)CC", 4]
]}

Field MIC (Salmonella enterica subsp. enterica serovar Typhimurium C77-31), entry CC[C@H](C)[C@H](NC(=O)[C@H](CCCN=C(N)N)NC(=O)[C@H](C)NC(=O)[C@H](C)N)C(=O)N[C@H](C(=O)N[C@@H](CC(C)C)C(=O)N[C@@H](CCCN=C(N)N)C(=O)N[C@@H](Cc1c[nH]c2ccccc12)C(=O)N[C@@H](Cc1ccccc1)C(=O)N[C@@H](CCCN=C(N)N)C(=O)N[C@@H](CCCN=C(N)N)C(N)=O)[C@@H](C)CC : 4

====

# Tested on: Candida albicans ATCC 10231
# Experiment: ≥ marks a high value that may be exact or a test limit, other limits are often not marked, values filed in µg/mL are converted to µM
Endpoint: MIC (µM)
Enter your answer as a number in µM; do not include the unit.

Looking up C[C@@H](O)[C@@H]1NC(=O)[C@@H](NC(=O)[C@H](CCCCN)NC(=O)[C@H](Cc2c[nH]c3ccccc23)NC(=O)[C@H](CCCCN)NC(=O)[C@@H](N)Cc2c[nH]c3ccccc23)CSSC[C@@H](C(=O)N[C@@H](CCCCN)C(=O)N[C@@H](Cc2c[nH]c3ccccc23)C(=O)N[C@@H](CCCCN)C(=O)N[C@@H](Cc2c[nH]c3ccccc23)C(N)=O)NC(=O)CNC(=O)[C@H](CO)NC(=O)[C@H](CCCCN)NC1=O [WKWKCTKSGCKWKW] , I see its MIC listed as 1.08

====

// values below are MIC; system is Bacillus subtilis

Below, each entry is followed by its recorded MIC result.
{"columns": ["Compound", "Measured"],
 "data": [
  ["CC[C@H](C)[C@H](NC(=O)[C@H](Cc1ccccc1)NC(=O)[C@@H](NC(=O)[C@H](Cc1ccc(O)cc1)NC(=O)[C@H](CCCN=C(N)N)NC(=O)[C@H](CCCCN)NC(=O)[C@H](CCCN=C(N)N)NC(=O)[C@H](CCCCN)NC(=O)[C@H](Cc1c[nH]c2ccccc12)NC(=O)[C@H](CC(C)C)NC(=O)[C@@H](NC(=O)[C@@H](N)Cc1ccc(O)cc1)C(C)C)[C@@H](C)CC)C(=O)O [YVLWKRKRYIFI]", "3.56 µM"],
  ["CC(C)[C@H](NC(=O)CNC(=O)[C@H](CCCN=C(N)N)NC(=O)[C@H](Cc1cnc[nH]1)NC(=O)[C@H](Cc1c[nH]c2ccccc12)NC(=O)[C@H](Cc1ccccc1)NC(=O)[C@H](Cc1cnc[nH]1)NC(=O)[C@H](Cc1ccc(O)cc1)NC(=O)[C@@H](N)Cc1ccc(O)cc1)C(=O)N[C@H](C(=O)N[C@@H](CCCCN)C(=O)N[C@@H](CCCN=C(N)N)C(=O)O)[C@@H](C)O [YYHFWHRGVTKR]", "≥ 40 µM"]
]}

Field MIC (Bacillus subtilis), entry CC(C)C[C@H](NC(=O)[C@@H](N)Cc1ccccc1)C(=O)N1CCC[C@H]1C(=O)N1CCC[C@H]1C(=O)N[C@@H](CO)C(=O)N1CCC[C@H]1C(=O)N[C@@H](Cc1c[nH]c2ccccc12)C(=O)N[C@@H](CCCCN)C(=O)N[C@@H](CCC(=O)O)C(=O)N[C@H](C(=O)N[C@@H](Cc1ccccc1)C(=O)N[C@@H](CCCN=C(N)N)C(=O)N[C@H](C(=O)N[C@@H](CO)C(=O)O)[C@@H](C)O)[C@@H](C)O [FLPPSPWKETFRTS] : ≥ 50.2 µM

====

Measured MIC by item
# System: Salmonella enterica serovar Typhimurium
# Experiment: ≥ marks a high value that may be exact or a test limit, other limits are often not marked, values filed in µg/mL are converted to µM
Enter your answer as a number in µM; do not include the unit.

{"columns": ["Smiles string", "Endpoint", "Unit string", "Measured"],
 "data": [
  ["CC[C@H](C)[C@H](NC(=O)[C@H](CCCN=C(N)N)NC(=O)[C@H](CCCN=C(N)N)NC(=O)[C@H](CC(C)C)NC(=O)[C@@H](N)CCCN=C(N)N)C(=O)N[C@H](C(=O)N[C@H](C(=O)N[C@H](C(=O)N[C@@H](CCCN=C(N)N)C(=O)N[C@H](C(=O)N[C@@H](C)C(=O)N[C@@H](CCCN=C(N)N)C(=O)O)C(C)C)[C@@H](C)CC)C(C)C)C(C)C", "MIC", "µM", 5.31]
]}

Shift focus to the following entry.
Looking up CC[C@H](C)[C@H](NC(=O)[C@H](CCCN=C(N)N)NC(=O)[C@H](CC(C)C)NC(=O)[C@H](CCC(N)=O)NC(=O)[C@@H](N)C(C)C)C(=O)N[C@@H](CCCN=C(N)N)C(=O)N[C@H](C(=O)N[C@@H](CS)C(=O)N[C@H](C(=O)N[C@H](C(=O)N[C@@H](CCCN=C(N)N)C(=O)N[C@@H](CCCN=C(N)N)C(=O)O)[C@@H](C)CC)C(C)C)C(C)C , I see its MIC listed as 10.6

====

# Test system: Shigella dysenteriae
# Experiment: ≥ marks a high value that may be exact or a test limit, other limits are often not marked, values filed in µg/mL are converted to µM
Measured MIC by item
Enter your answer as a number in µM; do not include the unit.

{"columns": ["Molecule", "MIC, µM"],
 "data": [
  ["CC[C@H](C)[C@H](N)C(=O)N[C@@H](CC(N)=O)C(=O)N[C@@H](CC(C)C)C(=O)N[C@@H](CCCCN)C(=O)N[C@@H](C)C(=O)N[C@H](C(=O)N[C@@H](C)C(=O)N[C@@H](C)C(=O)N[C@@H](CC(C)C)C(=O)N[C@@H](C)C(=O)N[C@@H](CCCCN)C(=O)N[C@@H](CCCCN)C(=O)N[C@@H](CC(C)C)C(=O)N[C@@H](CC(C)C)C(=O)O)[C@@H](C)CC [INLKAIAALAKKLL]", 3.38]
]}

Shift focus to the following entry.
Looking up CSCC[C@@H]1NC(=O)[C@H](CC(C)C)NC(=O)[C@H](C)NC(=O)[C@H](CCCN=C(N)N)NC(=O)[C@H](CC(N)=O)NC(=O)[C@@H](NC(=O)[C@H](CCCCN)NC(=O)[C@H](CC(N)=O)NC(=O)[C@H](CCCN=C(N)N)NC(=O)[C@@H]2CCCN2C(=O)[C@H](CCSC)NC(=O)[C@H](CO)NC(=O)[C@H](CC(C)C)NC(=O)[C@H](C)NC(=O)[C@@H](N)CC(N)=O)CSSC[C@@H](C(=O)N[C@@H](Cc2ccccc2)C(=O)NCC(=O)O)NC1=O [NALSMPRNKCNRALMCFG] , I see its MIC listed as 3.08
